Kindly state residual activity for each of the entries shown.
# Tested on: LCK (mouse)
# experimental protocol: radiometric filter-binding kinase assay
# measurement conditions: compound 1.0 µM; ATP 50 µM; accession and sequence are those of the human protein
Give bare numbers, in %.

compound	measurement units	quantitative result
CC(C)(N)c1ccc(-c2nc3ccccc3nc2-c2ccccc2)cc1	%	84
COC[C@H]1OC(=O)c2coc3c2[C@@]1(C)C1=C(C3=O)[C@@H]2CCC(=O)[C@@]2(C)C[C@H]1OC(C)=O	%	73
O=C1c2ccccc2-c2n[nH]c3cccc1c23	%	68

Attention now shifts to the item below.
Input line: Give a short answer stating reported residual activity for CO[C@H]1CC2CC[C@@H](C)[C@@](O)(O2)C(=O)C(=O)N2CCCC[C@H]2C(=O)OC([C@H](C)C[C@@H]2CC[C@@H](O)[C@H](OC)C2)CC(=O)[C@H](C)/C=C(\C)[C@@H](O)[C@@H](OC)C(=O)[C@H](C)C[C@H](C)/C=C/C=C/C=C/1C (some centres undefined) .
Output line: 79

###

# Test system: SGK1 (human), O00141 [S422D]
# Sequence (O00141 whole entry S422D, looked up): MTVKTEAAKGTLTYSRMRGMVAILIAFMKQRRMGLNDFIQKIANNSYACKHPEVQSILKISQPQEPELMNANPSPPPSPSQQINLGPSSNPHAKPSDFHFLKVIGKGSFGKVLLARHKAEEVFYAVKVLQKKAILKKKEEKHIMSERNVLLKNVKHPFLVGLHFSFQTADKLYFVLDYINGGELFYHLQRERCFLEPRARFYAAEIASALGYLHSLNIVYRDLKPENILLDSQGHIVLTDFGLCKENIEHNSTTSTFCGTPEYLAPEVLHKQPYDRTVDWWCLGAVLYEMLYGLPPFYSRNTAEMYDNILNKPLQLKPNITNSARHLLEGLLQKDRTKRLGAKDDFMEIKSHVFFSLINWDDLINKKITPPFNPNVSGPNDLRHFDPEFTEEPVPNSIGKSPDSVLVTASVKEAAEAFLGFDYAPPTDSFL
# experimental protocol: radiometric filter-binding kinase assay
# measurement conditions: compound 1.0 µM; ATP 20 µM
measured metric: residual activity (%)
One number for each entry, in %.

molecule	residual activity [%]
COC[C@H]1OC(=O)c2coc3c2[C@@]1(C)C1=C(C3=O)[C@@H]2CCC(=O)[C@@]2(C)C[C@H]1OC(C)=O	86
COc1ccc2c(c1)=NC1=C(C)NCCC=21	85
O=C1c2ccccc2-c2n[nH]c3cccc1c23	28
CO[C@H]1CC2CC[C@@H](C)[C@@](O)(O2)C(=O)C(=O)N2CCCC[C@H]2C(=O)OC([C@H](C)C[C@@H]2CC[C@@H](O)[C@H](OC)C2)CC(=O)[C@H](C)/C=C(\C)[C@@H](O)[C@@H](OC)C(=O)[C@H](C)C[C@H](C)/C=C/C=C/C=C/1C (stereo not given in full)	93

Input line: Quote residual activity reported for O=S(=O)(NCCNC/C=C/c1ccc(Br)cc1)c1cccc2cnccc12 please.
Output line: 62

###

# system name: UniProt Q16513
# Sequence (Q16513 whole entry, looked up): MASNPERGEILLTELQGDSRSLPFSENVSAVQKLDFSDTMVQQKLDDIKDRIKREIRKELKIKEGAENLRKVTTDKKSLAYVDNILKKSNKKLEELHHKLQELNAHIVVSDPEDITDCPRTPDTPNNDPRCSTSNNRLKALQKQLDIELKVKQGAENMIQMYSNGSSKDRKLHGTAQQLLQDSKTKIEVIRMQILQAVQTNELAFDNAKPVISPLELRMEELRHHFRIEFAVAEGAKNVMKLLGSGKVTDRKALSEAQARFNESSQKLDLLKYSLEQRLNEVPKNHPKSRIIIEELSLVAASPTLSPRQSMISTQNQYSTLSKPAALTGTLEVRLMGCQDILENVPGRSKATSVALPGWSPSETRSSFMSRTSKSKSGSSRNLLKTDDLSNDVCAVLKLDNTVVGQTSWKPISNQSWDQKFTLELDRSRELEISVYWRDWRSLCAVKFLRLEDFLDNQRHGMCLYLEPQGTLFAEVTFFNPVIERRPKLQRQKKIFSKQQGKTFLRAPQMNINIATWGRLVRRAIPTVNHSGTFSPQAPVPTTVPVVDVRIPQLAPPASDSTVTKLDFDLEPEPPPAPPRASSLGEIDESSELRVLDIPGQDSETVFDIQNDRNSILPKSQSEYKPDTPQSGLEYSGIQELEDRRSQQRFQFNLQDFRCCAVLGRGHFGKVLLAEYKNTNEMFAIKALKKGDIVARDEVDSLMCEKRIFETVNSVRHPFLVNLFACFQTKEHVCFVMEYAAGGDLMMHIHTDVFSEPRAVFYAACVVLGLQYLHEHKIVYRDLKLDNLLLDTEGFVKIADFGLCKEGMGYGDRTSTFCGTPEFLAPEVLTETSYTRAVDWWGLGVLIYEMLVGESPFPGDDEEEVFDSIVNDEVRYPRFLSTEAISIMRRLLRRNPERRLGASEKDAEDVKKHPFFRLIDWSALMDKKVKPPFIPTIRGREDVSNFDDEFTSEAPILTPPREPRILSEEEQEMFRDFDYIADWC
# experimental protocol: radiometric filter-binding kinase assay
# measurement conditions: compound 1.0 µM; ATP 5 µM
Define the label as condition met when residual activity is strictly less than 80% and as condition not met in all remaining cases.

# count of solved cases: 3
smiles str	class name
COC[C@H]1OC(=O)c2coc3c2[C@@]1(C)C1=C(C3=O)[C@@H]2CCC(=O)[C@@]2(C)C[C@H]1OC(C)=O	condition met
O=C1c2ccccc2-c2n[nH]c3cccc1c23	condition met
O=S(=O)(NCCNC/C=C/c1ccc(Br)cc1)c1cccc2cnccc12	condition met

Below: the item to evaluate.
Input line: Decide: residual activity of COc1ccc2c(c1)=NC1=C(C)NCCC=21 strictly below 80%?
Output line: condition not met

###

# system name: RPS6KA1 KD1 KD2 (human) (UniProt Q15418)
# Sequence (Q15418 whole entry, looked up): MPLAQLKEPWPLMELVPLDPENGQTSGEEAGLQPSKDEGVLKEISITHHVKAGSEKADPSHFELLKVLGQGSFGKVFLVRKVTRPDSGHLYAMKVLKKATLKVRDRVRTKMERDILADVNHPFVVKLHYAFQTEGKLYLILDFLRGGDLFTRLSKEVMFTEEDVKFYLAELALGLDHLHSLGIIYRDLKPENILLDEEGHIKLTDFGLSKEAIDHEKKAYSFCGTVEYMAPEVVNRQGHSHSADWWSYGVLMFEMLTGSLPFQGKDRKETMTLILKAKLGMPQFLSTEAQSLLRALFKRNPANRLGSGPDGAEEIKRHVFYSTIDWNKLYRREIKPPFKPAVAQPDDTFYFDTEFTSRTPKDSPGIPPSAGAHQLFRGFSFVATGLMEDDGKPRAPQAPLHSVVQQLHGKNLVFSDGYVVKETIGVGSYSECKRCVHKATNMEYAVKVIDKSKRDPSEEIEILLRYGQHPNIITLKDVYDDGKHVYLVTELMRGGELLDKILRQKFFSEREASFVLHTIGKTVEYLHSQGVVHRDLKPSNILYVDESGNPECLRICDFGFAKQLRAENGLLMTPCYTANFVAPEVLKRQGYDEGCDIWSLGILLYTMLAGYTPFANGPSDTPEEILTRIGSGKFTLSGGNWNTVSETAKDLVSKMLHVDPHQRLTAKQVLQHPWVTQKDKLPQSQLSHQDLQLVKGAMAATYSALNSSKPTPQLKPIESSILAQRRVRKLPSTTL
# experimental protocol: radiometric filter-binding kinase assay
# measurement conditions: compound 1.0 µM; ATP 50 µM
Provide the reported residual activity of each item.
Give bare numbers, in %.

Here's what some known entries look like.
compound	system name	residual activity, %
CO[C@H]1CC2CC[C@@H](C)[C@@](O)(O2)C(=O)C(=O)N2CCCC[C@H]2C(=O)OC([C@H](C)C[C@@H]2CC[C@@H](O)[C@H](OC)C2)CC(=O)[C@H](C)/C=C(\C)[C@@H](O)[C@@H](OC)C(=O)[C@H](C)C[C@H](C)/C=C/C=C/C=C/1C (stereo partly specified)	RPS6KA1 KD1 KD2 (human) (UniProt Q15418)	90
COc1ccc2c(c1)=NC1=C(C)NCCC=21	RPS6KA1 KD1 KD2 (human) (UniProt Q15418)	110
COC[C@H]1OC(=O)c2coc3c2[C@@]1(C)C1=C(C3=O)[C@@H]2CCC(=O)[C@@]2(C)C[C@H]1OC(C)=O	RPS6KA1 KD1 KD2 (human) (UniProt Q15418)	86
O=C1c2ccccc2-c2n[nH]c3cccc1c23	RPS6KA1 KD1 KD2 (human) (UniProt Q15418)	55
CC(C)(N)c1ccc(-c2nc3ccccc3nc2-c2ccccc2)cc1	RPS6KA1 KD1 KD2 (human) (UniProt Q15418)	98

Input line: Give the value of residual activity reported for the following: O=S(=O)(NCCNC/C=C/c1ccc(Br)cc1)c1cccc2cnccc12
Output line: 36
